Test system: Hs578T complex spheroid growth, percent test/control
Assay: Anticancer human tumor Hs578T cell line growth inhibition [AhR];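 further: luminescent viability signal as a proxy for spheroid growth; spheroids exposed to agents for one week after three days of growth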
Settings: curve of first compound; second compound 1 µM
Text: Multicellular complex tumor spheroid response to aryl hydrocarbon receptor antagonists in combination with a variety of drugs and investigational agents in selected tumor cell lines […] Compounds. […] If the clinical Cmax for an agent had not been determined, the highest concentration tested was 10 microM (Table 1). […]
readout name: IC50 (nM)

| compound | measurement unit | IC50 |
| --- | --- | --- |
| COc1ccc([C@@H](O)c2cc(-c3ncnc4cc(N5CCOCC5)ccc34)c(F)cc2Cl)nn1 + Cc1ccccc1N=Nc1ccc(NC(=O)c2ccnn2C)c(C)c1 | nM | 3330 |
| COc1ccc([C@@H](O)c2cc(-c3ncnc4cc(N5CCOCC5)ccc34)c(F)cc2Cl)nn1 + Cc1cncc(-c2nc(NCCc3c[nH]c4ccccc34)c3ncn(C(C)C)c3n2)c1 | nM | 5990 |
| COc1cccc2c1C(=O)c1c(O)c3c(c(O)c1C2=O)CC(O)(C(=O)CO)CC3OC1CC(N)C(O)C(C)O1 (stereo not given) + CC(CO)NC(=O)c1cc(-c2ccc(Cl)cc2)nn(-c2cnn(C)c2)c1=O | nM | 497 |
| O=C(C=Cc1cccc(S(=O)(=O)Nc2ccccc2)c1)NO + CC(CO)NC(=O)c1cc(-c2ccc(Cl)cc2)nn(-c2cnn(C)c2)c1=O | nM | 2780 |
| CC1COCCN1c1cc(-c2ccnn2C)c2ccnc(-c3ccn[nH]3)c2n1 (stereo not given) + CC(CO)NC(=O)c1cc(-c2ccc(Cl)cc2)nn(-c2cnn(C)c2)c1=O | nM | 615 |
| Nc1ccccc1NC(=O)c1ccc(CNC(=O)OCc2cccnc2)cc1 + Cc1cncc(-c2nc(NCCc3c[nH]c4ccccc34)c3ncn(C(C)C)c3n2)c1 | nM | 1820 |

(a) NS(=O)(=O)OCC1CC(n2ccc3c(NC4CCc5ccccc54)ncnc32)CC1O (stereo not given) + CC(CO)NC(=O)c1cc(-c2ccc(Cl)cc2)nn(-c2cnn(C)c2)c1=O
(b) CC(C)CC(NC(=O)C(Cc1ccccc1)NC(=O)c1cnccn1)B(O)O (stereo not given) + Cc1ccccc1N=Nc1ccc(NC(=O)c2ccnn2C)c(C)c1
Q. Kindly identify which of a and b has the larger recorded IC50 value. To answer, give the label that identifies your chosen option.
A. a
(a: 1240 nM, b: 5.47 nM)

Hello, the source for this data is PubChem BioAssay AID1919010, in case you need it.
